Origin of measurements: PubChem BioAssay (NCATS)

experiment_description: Viability qHTS for spleen associated tyrosine kinase inhibitor (SYKi) naive MV4-11 cells (AID 1963823); also: nearly all actives have a fitted effect of over 40% in size
condition_summary: MV4-11 AML viability, CellTiter-Glo luminescence, 72 h; series mostly up to 45 µM
Inconclusive results are not listed. Activity calls are given as the source filed them. Calls follow the shape of the dose curve; as a rule, active = well fitted cell-killing curve with a large enough effect; inconclusive = small, poorly fitted or top-dose-only effect, or effect the other way; inactive = no such curve, though single readings can be large or run the other way.
Pick one and only one: active, inactive

QUERY: Per the assay record, what outcome was assigned to COC(=O)Nc1nc2ccc(C(=O)C3CC3)cc2[nH]1 ?
RESULT: active

QUERY: Each compound tested received a call. Report the one for CN(C)CCOc1ccccc1Cc1ccccc1 .
RESULT: inactive

QUERY: Query: recorded result category for NC(=O)c1ccc(F)c2c1C[C@@H](N(C1CCC1)C1CCC1)CO2 in this test
RESULT: inactive

QUERY: Per the assay record, what outcome was assigned to COc1cc(C)c(C(=O)O[C@H]2[C@@H](O)[C@H](n3ccc(=O)[nH]c3=O)O[C@@H]2CO)c(OC)c1 ?
RESULT: inactive

QUERY: Recorded call for CC1(C)CCCC2(C)c3c4c(c(=O)oc(=O)c3=CCC12)=CCC1C(C)(C)CCCC41C (centres undefined) ?
RESULT: inactive

QUERY: What did the test return for N#CSCC(=O)O ?
RESULT: inactive

QUERY: // param item: C/C=C/c1ccc(OC)cc1 ; yields the recorded call
RESULT: inactive

QUERY: Recorded test outcome, item Nc1n[nH]c(N)c1N=Nc1ccc(O)cc1
RESULT: active

QUERY: For this compound, state the assay outcome: CC1(C)C(O)CCC2(C)C1C(O)C=C1COC(=O)C12O (centres undefined)
RESULT: inactive

QUERY: Outcome logged for c1cc(NCCc2c[nH]c3ccccc23)cc(Nc2ccncc2)c1 in this assay:
RESULT: active

QUERY: Each compound tested received a call. Report the one for CC(=O)O[C@H]1[C@H](OC(=O)C(C)C)[C@]2(C)OC3(CC[C@]2(C)[C@H]2CCC[C@]4(CO4)[C@]12C)COC(=O)C3 (some centres undefined) .
RESULT: inactive

QUERY: Give the logged outcome of this assay for the following compound: Nc1nc(Cl)nc2c1ncn2[C@H]1C[C@H](O)[C@@H](CO)O1
RESULT: active

QUERY: How was CNc1nc(Nc2cnn([C@H]3CCN(C4COC4)C[C@@H]3F)c2Cl)ncc1C(F)(F)F classified in this test?
RESULT: active

QUERY: Lab log entry: COC(=O)C1=CO[C@@H](O[C@@H]2O[C@H](CO)[C@@H](O)[C@H](O)[C@H]2O)[C@H]2[C@@H]1C=C[C@@]21C=C([C@H](C)O)C(=O)O1 — outcome as called in the assay?
RESULT: inactive

QUERY: Lab log entry: CCNC(=O)[C@@H]1CCCN1C(=O)[C@H](CCCN=C(N)N)NC(=O)[C@H](CC(C)C)NC(=O)[C@@H](CC(C)C)NC(=O)[C@H](Cc1ccc(O)cc1)NC(=O)[C@H](CO)NC(=O)[C@H](Cc1c[nH]c2ccccc12)NC(=O)[C@H](Cc1cnc[nH]1)NC(=O)[C@@H]1CCC(=O)N1 — outcome as called in the assay?
RESULT: inactive

QUERY: What is the recorded call for this compound in the test? C=C1CC23CC1CCC2C12OC(=O)C(C)(CCC1O)C2C3C(=O)O (centres undefined)
RESULT: inactive

QUERY: # fetch the recorded call for CC(C)n1cc(-c2ccc(Oc3ccccc3)cc2)c2c(N)ncnc21 here
RESULT: active

QUERY: Assay outcome for CCOc1ccccc1OCCNC(C)Cc1ccc(OC)c(S(N)(=O)=O)c1 (centres undefined) : what was it?
RESULT: inactive

QUERY: What did this assay record as the result for C=CC1C(O[C@@H]2O[C@H](CO)[C@@H](O)[C@H](O)[C@H]2O)OC=C(C(=O)OC)C1Cc1nccc2c1[nH]c1ccccc12 (some centres undefined) ?
RESULT: inactive
